Record: pIC50 reported on huMAO-B (Homo sapiens).
Sequence (P27338 whole entry): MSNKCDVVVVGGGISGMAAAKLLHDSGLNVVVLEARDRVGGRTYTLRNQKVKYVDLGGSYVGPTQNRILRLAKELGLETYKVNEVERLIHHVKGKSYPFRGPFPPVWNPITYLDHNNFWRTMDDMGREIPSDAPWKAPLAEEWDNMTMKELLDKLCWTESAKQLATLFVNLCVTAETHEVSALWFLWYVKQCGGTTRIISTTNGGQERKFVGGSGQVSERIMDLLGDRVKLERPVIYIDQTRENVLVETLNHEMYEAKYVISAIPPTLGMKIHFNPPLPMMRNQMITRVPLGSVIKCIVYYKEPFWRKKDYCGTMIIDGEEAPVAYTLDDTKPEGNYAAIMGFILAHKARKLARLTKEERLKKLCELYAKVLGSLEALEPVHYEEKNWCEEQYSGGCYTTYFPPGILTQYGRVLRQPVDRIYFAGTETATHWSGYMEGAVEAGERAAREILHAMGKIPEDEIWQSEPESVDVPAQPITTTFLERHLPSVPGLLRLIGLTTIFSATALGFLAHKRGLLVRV
Friendly reminder that pIC50 comes from taking -log10 of the concentration in mol/L.

Incoming: Name the recorded pIC50 for CCN(CCCCCCOc1ccc(/C=C/C(=O)c2c(O)cc(OC)c(O)c2OC)cc1)Cc1ccccc1OC [Compound 17f] .
Outgoing: 5.06

Incoming: Repeat with COc1ccccc1CN(C)CCCOc1ccc(/C=C/C(=O)c2c(O)cc(OC)c(OC)c2OC)cc1 [Compound 9a]
Outgoing: 5.42

Incoming: Repeat with CCN(CC)CCCCOc1ccc(/C=C/C(=O)c2c(O)cc(OC)c(OC)c2OC)cc1 [Compound 10]
Outgoing: 4.84

Incoming: Repeat with COc1ccccc1CN(C)CCCCCCOc1ccc(/C=C/C(=O)c2c(O)cc(OC)c(OC)c2OC)cc1 [Compound 9e]
Outgoing: 5.60

Incoming: Repeat with CCN(CCCCOc1ccc(/C=C/C(=O)c2c(O)cc(OC)c(O)c2OC)cc1)Cc1ccccc1OC [Compound 17d]
Outgoing: 4.82

Incoming: Repeat with CCN(CCCOc1ccc(/C=C/C(=O)c2c(O)cc(OC)c(OC)c2OC)cc1)Cc1ccccc1OC [Compound 9b]
Outgoing: 5.09

Incoming: Repeat with COc1ccccc1CN(C)CCCCCCOc1ccc(/C=C/C(=O)c2c(O)cc(OC)c(O)c2OC)cc1 [Compound 17e]
Outgoing: 4.89

Incoming: Repeat with COc1ccccc1CN(C)CCCCOc1ccc(/C=C/C(=O)c2c(O)cc(OC)c(OC)c2OC)cc1 [Compound 9c]
Outgoing: 4.63

Incoming: Repeat with CCN(CCCCOc1ccc(/C=C/C(=O)c2c(O)cc(OC)c(OC)c2OC)cc1)Cc1ccccc1OC [Compound 9d]
Outgoing: 4.91

Incoming: Repeat with CCN(CCCCCCOc1ccc(/C=C/C(=O)c2c(O)cc(OC)c(OC)c2OC)cc1)Cc1ccccc1OC [Compound 9f]
Outgoing: 5.14
